These entries and their values trace back to ChEMBL document CHEMBL3232963.

- assayed target: Neuronal acetylcholine receptor; alpha3/beta2 (Rattus norvegicus, UniProt P04757+P12390)
- Sequence (P04757 whole entry): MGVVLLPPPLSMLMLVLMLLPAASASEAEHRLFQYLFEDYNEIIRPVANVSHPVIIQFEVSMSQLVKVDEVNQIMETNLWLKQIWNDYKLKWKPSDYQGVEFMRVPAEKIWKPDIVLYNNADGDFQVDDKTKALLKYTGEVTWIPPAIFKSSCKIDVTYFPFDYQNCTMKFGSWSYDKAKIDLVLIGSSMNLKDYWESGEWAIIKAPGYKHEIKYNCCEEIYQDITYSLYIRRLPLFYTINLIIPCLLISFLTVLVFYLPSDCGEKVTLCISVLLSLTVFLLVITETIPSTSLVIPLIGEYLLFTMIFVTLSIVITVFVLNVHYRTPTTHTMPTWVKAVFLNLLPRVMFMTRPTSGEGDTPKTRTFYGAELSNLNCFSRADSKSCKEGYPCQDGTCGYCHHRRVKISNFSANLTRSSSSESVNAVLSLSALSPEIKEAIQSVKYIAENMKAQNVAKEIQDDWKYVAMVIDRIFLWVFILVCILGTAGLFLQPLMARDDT
- Sequence (P12390 whole entry): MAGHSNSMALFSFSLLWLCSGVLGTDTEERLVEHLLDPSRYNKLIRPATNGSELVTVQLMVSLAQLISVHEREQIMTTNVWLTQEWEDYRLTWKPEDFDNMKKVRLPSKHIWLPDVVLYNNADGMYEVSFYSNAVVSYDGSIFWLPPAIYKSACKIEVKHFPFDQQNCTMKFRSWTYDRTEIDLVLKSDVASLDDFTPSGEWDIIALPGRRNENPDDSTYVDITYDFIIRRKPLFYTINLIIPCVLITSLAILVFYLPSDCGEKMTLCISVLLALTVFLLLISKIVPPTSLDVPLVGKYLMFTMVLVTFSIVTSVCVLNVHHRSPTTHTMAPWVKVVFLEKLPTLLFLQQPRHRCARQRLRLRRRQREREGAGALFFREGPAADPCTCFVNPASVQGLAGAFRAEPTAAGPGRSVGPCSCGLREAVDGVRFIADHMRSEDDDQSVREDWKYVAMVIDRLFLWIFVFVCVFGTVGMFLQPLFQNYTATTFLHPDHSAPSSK
- test name: Antagonist activity at rat alpha3beta2 nAChR expressed in HEK293 cells assessed as inhibition of epibatadine-induced effect after 30 mins by fluorescent membrane potential assay
pIC50: −log10 of the molar value. Bridge positions count the residues as written; N and C are the ends. Square brackets hold non-standard residues; d marks the D form. Peptide text beside a SMILES is read from it. Nva = CCC[C@H](N)C(=O)O; Abu = CC[C@H](N)C(=O)O
measured parameter: pIC50

[[record]]
compound = "CCC[C@@H]1NC(=O)[C@H](CC)NC(=O)[C@H](Cc2ccccc2)NC(=O)[C@@H]2CSSC[C@H](NC(=O)CN)C(=O)N[C@@H](CSSC[C@@H](C(=O)O)NC(=O)[C@H](Cc3ccc(O)cc3)NC1=O)C(=O)N[C@@H](CO)C(=O)N[C@@H](Cc1cnc[nH]1)C(=O)N1CCC[C@H]1C(=O)N[C@@H](CC)C(=O)N2 (H-GCCSHP[Abu]CF[Abu][Nva]YC-OH; disulfide 2-8, 3-13)"
measured_parameter = "pIC50"
result = "< 5.00"


* * *

- assayed target: Neuronal acetylcholine receptor; alpha4/beta2 (Rattus norvegicus) (UniProt P09483+P12390)
- test name: Displacement of [3H]epibatadine from rat alpha4beta2 nAChR expressed in HEK293 cells up to 10 uM after 2 hrs by betaplate counting analysis
- Format: cell-based
Calls of active or inactive are those of the source. The rule behind the calls is not given here. Bridge positions count the residues as written; N and C are the ends. Square brackets hold non-standard residues; d marks the D form. Peptide text beside a SMILES is read from it. Nle = CCCC[C@H](N)C(=O)O; Nva = CCC[C@H](N)C(=O)O; Abu = CC[C@H](N)C(=O)O
measured parameter: Activity

[[record]]
molecule = "CCC[C@@H]1NC(=O)[C@H](CC)NC(=O)[C@H](Cc2ccccc2)NC(=O)[C@@H]2CSSC[C@H](NC(=O)CN)C(=O)N[C@@H](CSSC[C@@H](C(=O)O)NC(=O)[C@H](Cc3ccc(O)cc3)NC1=O)C(=O)N[C@@H](CO)C(=O)N[C@@H](Cc1cnc[nH]1)C(=O)N1CCC[C@H]1C(=O)N1CCC[C@H]1C(=O)N2 (H-GCCSHPPCF[Abu][Nva]YC-OH; disulfide 2-8, 3-13)"
result = "inactive"

[[record]]
molecule = "CCCC[C@@H]1NC(=O)[C@H](CO)NC(=O)[C@@H]2CSSC[C@@H](C(=O)O)NC(=O)[C@H](Cc3ccc(O)cc3)NC(=O)[C@H](CCC)NC(=O)[C@H](CC)NC(=O)[C@H](Cc3ccccc3)NC(=O)[C@H](CSSC[C@H](NC(=O)CN)C(=O)N2)NC(=O)[C@H](CC)NC(=O)[C@@H]2CCCN2C1=O (H-GCCS[Nle]P[Abu]CF[Abu][Nva]YC-OH; disulfide 2-8, 3-13)"
result = "inactive"

[[record]]
molecule = "CCCC[C@@H]1NC(=O)[C@H](CO)NC(=O)[C@@H]2CSSC[C@@H](C(=O)O)NC(=O)[C@H](Cc3ccc(O)cc3)NC(=O)[C@H](CCC)NC(=O)[C@H](CC)NC(=O)[C@H](Cc3ccccc3)NC(=O)[C@H](CSSC[C@H](NC(=O)CN)C(=O)N2)NC(=O)[C@@H]2CCCN2C(=O)[C@@H]2CCCN2C1=O (H-GCCS[Nle]PPCF[Abu][Nva]YC-OH; disulfide 2-8, 3-13)"
result = "inactive"


* * *

- assayed target: Neuronal acetylcholine receptor; alpha3/beta4 (Rattus norvegicus) (UniProt P04757+P12392)
- test name: Antagonist activity at rat alpha3beta4 nAChR expressed in HEK293 cells assessed as inhibition of epibatadine-induced effect at 10 uM after 30 mins by fluorescent membrane potential assay relative to mecamylamine
- Type: cell-based
Bridge positions count the residues as written; N and C are the ends. Square brackets hold non-standard residues; d marks the D form. Peptide text beside a SMILES is read from it. Nle = CCCC[C@H](N)C(=O)O; Nva = CCC[C@H](N)C(=O)O; Abu = CC[C@H](N)C(=O)O
measured parameter: inhibition

[[record]]
molecule = "CCCC[C@@H]1NC(=O)[C@H](CO)NC(=O)[C@@H]2CSSC[C@@H](C(=O)O)NC(=O)[C@H](Cc3ccc(O)cc3)NC(=O)[C@H](CCC)NC(=O)[C@H](Cc3c[nH]c4ccccc34)NC(=O)[C@H](Cc3ccccc3)NC(=O)[C@H](CSSC[C@H](NC(=O)CN)C(=O)N2)NC(=O)[C@H](CC)NC(=O)[C@@H]2CCCN2C1=O (H-GCCS[Nle]P[Abu]CFW[Nva]YC-OH; disulfide 2-8, 3-13)"
assayed_target = "Neuronal acetylcholine receptor; alpha3/beta4 (Rattus norvegicus) (UniProt P04757+P12392)"
measured_parameter = "inhibition"
result = "67.9%"

[[record]]
molecule = "CCCC[C@@H]1NC(=O)[C@H](Cc2c[nH]c3ccccc23)NC(=O)[C@H]([C@H](C)CC)NC(=O)[C@@H]2CSSC[C@H](NC(=O)CN)C(=O)N[C@@H](CSSC[C@@H](C(=O)O)NC(=O)[C@@H]3CCCN3C1=O)C(=O)N[C@@H](CO)C(=O)N[C@@H](CCCC)C(=O)N1CCC[C@H]1C(=O)N1CCC[C@H]1C(=O)N2"
assayed_target = "Neuronal acetylcholine receptor; alpha3/beta4 (Rattus norvegicus) (UniProt P04757+P12392)"
measured_parameter = "inhibition"
result = "6.3%"


* * *

- assayed target: Neuronal acetylcholine receptor; alpha4/beta2 (Rattus norvegicus, UniProt P09483+P12390)
- Sequence (P09483 whole entry, one chain of several): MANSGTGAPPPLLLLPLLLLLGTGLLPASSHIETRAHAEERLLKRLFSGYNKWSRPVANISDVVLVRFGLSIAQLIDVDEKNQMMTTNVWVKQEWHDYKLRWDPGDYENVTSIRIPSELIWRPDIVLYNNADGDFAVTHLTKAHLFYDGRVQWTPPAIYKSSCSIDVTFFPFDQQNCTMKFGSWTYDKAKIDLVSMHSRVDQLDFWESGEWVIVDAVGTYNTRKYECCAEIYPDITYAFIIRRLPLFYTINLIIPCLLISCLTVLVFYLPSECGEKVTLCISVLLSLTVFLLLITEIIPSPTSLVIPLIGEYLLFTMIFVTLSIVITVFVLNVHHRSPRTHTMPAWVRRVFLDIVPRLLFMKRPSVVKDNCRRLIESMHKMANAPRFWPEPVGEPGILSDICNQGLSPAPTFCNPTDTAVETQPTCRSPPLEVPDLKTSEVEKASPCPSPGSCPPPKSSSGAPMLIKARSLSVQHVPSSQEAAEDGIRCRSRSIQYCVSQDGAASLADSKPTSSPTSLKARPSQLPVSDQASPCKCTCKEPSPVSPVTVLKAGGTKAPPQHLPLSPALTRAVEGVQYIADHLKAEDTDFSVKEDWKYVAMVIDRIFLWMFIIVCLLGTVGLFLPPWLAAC
- test name: Antagonist activity at rat alpha4beta2 nAChR expressed in HEK293 cells assessed as inhibition of epibatadine-induced effect after 30 mins by fluorescent membrane potential assay
Bridge positions count the residues as written; N and C are the ends. Square brackets hold non-standard residues; d marks the D form. Peptide text beside a SMILES is read from it. Nle = CCCC[C@H](N)C(=O)O; Nva = CCC[C@H](N)C(=O)O; Abu = CC[C@H](N)C(=O)O
measured parameter: IC50

[[record]]
molecule = "CCCC[C@@H]1NC(=O)[C@H](CO)NC(=O)[C@@H]2CSSC[C@@H](C(=O)O)NC(=O)[C@H](Cc3ccc(O)cc3)NC(=O)[C@H](CCC)NC(=O)[C@H](CC)NC(=O)[C@H](Cc3ccccc3)NC(=O)[C@H](CSSC[C@H](NC(=O)CN)C(=O)N2)NC(=O)[C@H](CC)NC(=O)[C@@H]2CCCN2C1=O (H-GCCS[Nle]P[Abu]CF[Abu][Nva]YC-OH; disulfide 2-8, 3-13)"
result = "> 10 µM"

[[record]]
molecule = "CCCC[C@@H]1NC(=O)[C@H](CC)NC(=O)[C@H](Cc2ccccc2)NC(=O)[C@@H]2CSSC[C@H](NC(=O)CN)C(=O)N[C@@H](CSSC[C@@H](C(=O)O)NC(=O)[C@H](Cc3ccc(O)cc3)NC1=O)C(=O)N[C@@H](CO)C(=O)N[C@@H](CCCC)C(=O)N1CCC[C@H]1C(=O)N1CCC[C@H]1C(=O)N2 (H-GCCS[Nle]PPCF[Abu][Nle]YC-OH; disulfide 2-8, 3-13)"
result = "> 10 µM"

[[record]]
molecule = "CCC[C@@H]1NC(=O)[C@H](CC)NC(=O)[C@H](Cc2ccccc2)NC(=O)[C@@H]2CSSC[C@H](NC(=O)CN)C(=O)N[C@@H](CSSC[C@@H](C(=O)O)NC(=O)[C@H](Cc3ccc(O)cc3)NC1=O)C(=O)N[C@@H](CO)C(=O)N[C@@H](Cc1cnc[nH]1)C(=O)N1CCC[C@H]1C(=O)N1CCC[C@H]1C(=O)N2 (H-GCCSHPPCF[Abu][Nva]YC-OH; disulfide 2-8, 3-13)"
result = "> 10 µM"


* * *

- assayed target: Neuronal acetylcholine receptor; alpha3/beta4 (Rattus norvegicus) (UniProt P04757+P12392)
- test name: Antagonist activity at rat alpha3beta4 nAChR expressed in HEK293 cells assessed as inhibition of epibatadine-induced effect at 10 uM after 30 mins by fluorescent membrane potential assay relative to mecamylamine
- Assay type: cell-based
Bridge positions count the residues as written; N and C are the ends. Square brackets hold non-standard residues; d marks the D form. Peptide text beside a SMILES is read from it. Nva = CCC[C@H](N)C(=O)O; Abu = CC[C@H](N)C(=O)O
measured parameter: inhibition

[[record]]
compound = "CCC[C@@H]1NC(=O)[C@H](CC)NC(=O)[C@H](Cc2ccccc2)NC(=O)[C@@H]2CSSC[C@H](NC(=O)CN)C(=O)N[C@@H](CSSC[C@@H](C(=O)O)NC(=O)[C@@H]3CCCN3C1=O)C(=O)N[C@@H](CO)C(=O)N[C@@H](Cc1cnc[nH]1)C(=O)N1CCC[C@H]1C(=O)N[C@@H](CC)C(=O)N2 (H-GCCSHP[Abu]CF[Abu][Nva]PC-OH; disulfide 2-8, 3-13)"
result = "47%"

[[record]]
compound = "CCC[C@@H]1NC(=O)[C@H](Cc2c[nH]c3ccccc23)NC(=O)[C@H]([C@H](C)CC)NC(=O)[C@@H]2CSSC[C@H](NC(=O)CN)C(=O)N[C@@H](CSSC[C@@H](C(=O)O)NC(=O)[C@@H]3CCCN3C1=O)C(=O)N[C@@H](CO)C(=O)N[C@@H](Cc1cnc[nH]1)C(=O)N1CCC[C@H]1C(=O)N1CCC[C@H]1C(=O)N2"
result = "44.8%"

[[record]]
compound = "CCCC[C@@H]1NC(=O)[C@H](CO)NC(=O)[C@@H]2CSSC[C@@H](C(=O)O)NC(=O)[C@@H]3CCCN3C(=O)[C@H](CCC)NC(=O)[C@H](Cc3c[nH]c4ccccc34)NC(=O)[C@H]([C@H](C)CC)NC(=O)[C@H](CSSC[C@H](NC(=O)CN)C(=O)N2)NC(=O)[C@@H]2CCCN2C(=O)[C@@H]2CCCN2C1=O"
result = "38.9%"

